Source listed as ChEMBL document CHEMBL4251608.

# System: Human alphaherpesvirus 2
# ASSAY_SUMMARY: Antiviral activity against HSV2 strain G infected in HEL cells assessed as reduction in virus-induced cytopathic effect after 2 to 3 days
# Format: functional, organism-based
# TEST_CONTEXT: Human alphaherpesvirus 2, strain G
pEC50: −log10 of the molar value.
RESULT_TYPE: pEC50

Report value only: pEC50, Human alphaherpesvirus 2, Cc1cn([C@@H]2C[C@H](O)[C@@H](CO)O2)c(=O)c[n+]1[O-]
< 3.39

Report value only: pEC50, Human alphaherpesvirus 2, O=c1c[n+]([O-])ccn1[C@@H]1C[C@H](O)[C@@H](CO)O1
< 3.36

Report value only: pEC50, Human alphaherpesvirus 2, O=c1c[n+]([O-])ccn1[C@H]1C[C@H](O)[C@@H](CO)O1
< 3.36
